- Target entity: Serine/threonine-protein kinase 32B (Homo sapiens, UniProt Q9NY57)
- Sequence (Q9NY57 whole entry): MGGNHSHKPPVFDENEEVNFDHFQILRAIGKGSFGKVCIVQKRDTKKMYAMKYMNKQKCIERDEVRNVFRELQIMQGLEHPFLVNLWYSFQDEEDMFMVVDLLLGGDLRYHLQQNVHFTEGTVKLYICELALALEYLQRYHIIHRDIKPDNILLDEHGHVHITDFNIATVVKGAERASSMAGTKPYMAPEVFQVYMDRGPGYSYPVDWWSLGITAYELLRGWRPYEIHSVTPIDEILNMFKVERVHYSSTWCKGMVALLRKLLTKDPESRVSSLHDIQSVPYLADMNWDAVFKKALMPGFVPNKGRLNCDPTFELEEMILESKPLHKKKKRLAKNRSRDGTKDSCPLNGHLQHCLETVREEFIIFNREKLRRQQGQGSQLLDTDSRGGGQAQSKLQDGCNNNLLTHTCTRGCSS
- Assay info: Inhibition of full length recombinant human YANK2 using casein as substrate incubated for 120 mins in presence of [gamma-33P-ATP] by radiometric scintillation assay
Endpoint name: IC50

1. Cc1nn(CC(F)(F)F)cc1Nc1nccc(NCCCNC(=O)C2CCC2)n1 | > 10 µM

* * *

Examples of compounds with documented pIC50 follow.
- Target entity: Serine/threonine-protein kinase 17A (Homo sapiens, UniProt Q9UEE5)
- Sequence (Q9UEE5 whole entry, the tested form may be a part): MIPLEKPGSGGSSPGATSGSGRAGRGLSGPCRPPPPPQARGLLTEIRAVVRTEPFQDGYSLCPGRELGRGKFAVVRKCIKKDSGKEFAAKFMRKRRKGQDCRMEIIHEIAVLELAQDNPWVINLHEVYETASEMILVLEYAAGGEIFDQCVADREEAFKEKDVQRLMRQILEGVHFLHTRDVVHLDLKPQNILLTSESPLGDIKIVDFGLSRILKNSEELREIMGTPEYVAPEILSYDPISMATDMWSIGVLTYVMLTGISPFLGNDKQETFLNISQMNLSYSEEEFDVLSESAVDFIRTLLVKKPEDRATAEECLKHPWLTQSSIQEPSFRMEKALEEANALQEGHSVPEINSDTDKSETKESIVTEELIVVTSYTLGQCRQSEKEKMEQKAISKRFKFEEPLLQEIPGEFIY
- Assay info: Displacement of tracer K9 from NLuc fused DRAK1 (unknown origin) expressed in HEK293 cells by NanoBRET assay
- Format: cell-based
pIC50: −log10 of the molar value.
Endpoint name: pIC50

1) Cc1nn(CC(F)(F)F)cc1Nc1ncc(Br)c(NCCc2cnc[nH]2)n1 | < 5.00
2) Cc1nn(CC(F)(F)F)cc1Nc1nccc(NCCCNC(=O)C2CCC2)n1 | < 5.00
3) NS(=O)(=O)c1ccc(CNc2ccnc(Nc3cccc(NC(=O)N4CCCC4)c3)n2)cc1 | < 5.00
4) O=C(NCCCNc1nc(Nc2cccc(CN3CCOCC3)c2)ncc1C1CC1)C1CCC1 | 7.36
5) Cc1nn(CC(F)(F)F)cc1Nc1ncc(Br)c(NCCCNC(=O)C2CCC2)n1 | 6.90
6) O=C(NCCCNc1ccnc(Nc2cccc(NC(=O)N3CCCC3)c2)n1)C1CCC1 | 5.64
7) NS(=O)(=O)c1ccc(CNc2nc(Nc3cccc(NC(=O)N4CCCC4)c3)ncc2C2CC2)cc1 | < 5.00
8) Cc1nn(CC(F)(F)F)cc1Nc1nccc(NCc2ccc(S(N)(=O)=O)cc2)n1 | < 5.00
9) c1cc(CN2CCOCC2)cc(Nc2ncc(C3CC3)c(NCCc3c[nH]cn3)n2)c1 | 5.44
10) O=C(NCCCNc1nc(Nc2cccc(NC(=O)N3CCCC3)c2)ncc1C1CC1)C1CCC1 | 7.24
11) Cc1nn(CC(F)(F)F)cc1Nc1ncc(Br)c(NCc2ccc(S(N)(=O)=O)cc2)n1 | < 5.00
12) NS(=O)(=O)c1ccc(CNc2nc(Nc3cccc(CN4CCOCC4)c3)ncc2Br)cc1 | < 5.00
13) c1cc(CN2CCOCC2)cc(Nc2nccc(NCCc3cnc[nH]3)n2)c1 | < 5.00
14) Brc1cnc(Nc2cccc(CN3CCOCC3)c2)nc1NCCc1c[nH]cn1 | 6.20
15) Cc1nn(CC(F)(F)F)cc1Nc1ncc(C2CC2)c(NCCc2c[nH]cn2)n1 | < 5.00
16) NS(=O)(=O)c1ccc(CNc2nc(Nc3cccc(CN4CCOCC4)c3)ncc2C2CC2)cc1 | < 5.00
17) Cc1nn(CC(F)(F)F)cc1Nc1ncc(C2CC2)c(NCCCNC(=O)C2CCC2)n1 | 6.06
18) O=C(NCCCNc1nc(Nc2cccc(NC(=O)N3CCCC3)c2)ncc1Br)C1CCC1 | 8.35
19) Cc1nn(CC(F)(F)F)cc1Nc1ncc(C2CC2)c(NCc2ccc(S(N)(=O)=O)cc2)n1 | < 5.00
20) Cc1nn(CC(F)(F)F)cc1Nc1nccc(NCCc2cnc[nH]2)n1 | < 5.00
21) NS(=O)(=O)c1ccc(CNc2ccnc(Nc3cccc(CN4CCOCC4)c3)n2)cc1 | < 5.00
22) NS(=O)(=O)c1ccc(CNc2nc(Nc3cccc(NC(=O)N4CCCC4)c3)ncc2Br)cc1 | < 5.00

The measurements presented in this section are drawn from ChEMBL document CHEMBL5046221.
